System: K-562 leukemia
Assay: NCI tumour cell line growth inhibition, 48 h
Measured TGI by item

> print(dat)
                                   compound  measured.value
1  CCOC(=O)CCCc1cc(=O)c2c(C)c3[nH]c4ccc(Cl)cc4c3c(C)c2[nH]1         79.6 µM
2  CCc1cccc(C(C)C)c1NC(=O)C(=O)Nn1c(=S)[nH]c2ccccc2c1=O        > 100 µM
3  CC1(C)COC(c2cccc(C(O)c3ccc(Cl)cc3)c2)=N1 (centres undefined)        > 100 µM
4  O=C(CNc1ccc([N+](=O)[O-])cc1)Nn1c(-c2ccccc2)nc2ccccc2c1=O         5.52 µM

Recorded TGI for CC12CCC(=O)N1[C@@H](c1ccccc1)[C@@H](c1ccccc1)O2 (some centres undefined) with K-562 leukemia, please?
> 100 µM

Same read-out for CCOC(=O)C(Cc1ccccc1)n1c(O)c(/C=N/c2ncc(Cc3ccc(Cl)cc3Cl)s2)sc1=S (centres undefined) ?
> 100 µM

Same read-out for C=C(CC)C(=O)c1ccc(OCC(=O)O)c(Cl)c1Cl ?
> 100 µM

Same read-out for CCN(CC)CCC(=O)c1ccc(Cl)c(Cl)c1 ?
> 100 µM

Same read-out for CN1CCOC1(C)c1ccccc1 (centres undefined) ?
> 100 µM

Same read-out for O=C(Oc1ccc(C(c2c(O)c3ccccc3oc2=O)c2c(O)c3ccccc3oc2=O)cc1)c1ccc(C(=O)c2ccccc2)cc1 ?
47.9 µM

Same read-out for CN1CCC(=C(c2ccc(Cl)cc2)c2ccccn2)CC1 ?
> 100 µM
